Molecular target: hMrgpMRGPRX2 (Homo sapiens)
Construct: expressed in transfected cells
Sequence (Q96LB1 1-330): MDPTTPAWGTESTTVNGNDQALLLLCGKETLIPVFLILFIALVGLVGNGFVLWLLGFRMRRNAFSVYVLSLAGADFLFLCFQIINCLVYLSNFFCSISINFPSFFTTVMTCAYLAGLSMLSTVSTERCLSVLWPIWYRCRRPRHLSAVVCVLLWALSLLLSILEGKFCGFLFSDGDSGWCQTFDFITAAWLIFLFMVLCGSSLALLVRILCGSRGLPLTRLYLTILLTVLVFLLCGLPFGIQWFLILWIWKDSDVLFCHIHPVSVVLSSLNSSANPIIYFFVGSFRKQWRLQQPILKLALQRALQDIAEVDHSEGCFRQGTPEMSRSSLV
Assay: FLIPR intracellular calcium mobilization, antagonist activity in recombinant hMrgpMRGPRX2 expressing cells
Type: cell-based
Conditions: read-out: Human MrgprX2 Antagonist pIC50 (converted)
REPORTED PROPERTY: IC50 (nM)
Give the quantity in nM, number only.

Quickly give me recorded IC50 for CCN(C[C@@H](O)C(F)(F)F)C(=O)Nc1ccc(Oc2ccc(F)cc2)cn1
50.1

Quickly give me recorded IC50 for CCN(C[C@@H](O)C(F)(F)F)C(=O)Nc1cnc(Oc2cccc(F)c2)cn1
302
